Collected set of Ki measured with UniProt Q16790 across studies.
Ki strictly less than 30 nM = yes. Otherwise no.

CCn1cc(-c2cc(C(=O)O)n[nH]2)c2ccccc21; no
NS(=O)(=O)c1ccc(-n2cc(COc3ccnc(N4CCN(c5ccc(F)cc5)CC4)n3)nn2)cc1; yes
O=C(CNOCc1ccc(Cl)cc1)NO; no
COC(=O)C(C)S(=O)(=O)c1cc(Cl)c(C)cc1S(N)(=O)=O (stereo not given); no

Exam item: Regarding NS(=O)(=O)c1ccc2nc(NC(=O)CSC(=S)N3CCCCC3)sc2c1 , kindly confirm whether its Ki is beneath 30 nM.
Marked response: yes

Exam item: Repeat for the following molecule: CNc1nc(NC)nc(NCCc2ccc(S(N)(=O)=O)cc2)n1
Marked response: yes

Exam item: Repeat for the following molecule: COc1cccc2cc(C(=O)O)c(=O)oc12
Marked response: no
